# experimentalSystem: Neu5Ac(a2-6)Gal(b1-4)GlcNAc(b1-2)[Neu5Ac(a2-6)Gal(b1-4)GlcNAc(b1-4)]Man(a1-3)[GlcNAc(b1-4)][Neu5Ac(a2-6)Gal(b1-4)GlcNAc(b1-2)[Neu5Ac(a2-6)Gal(b1-4)GlcNAc(b1-6)]Man(a1-6)]Man(b1-4)GlcNAc(b1-4)GlcNAc
# assayName: glycan array binding signal (z-score within array); higher = stronger binding
# measurementConditions: glycan notation: IUPAC condensed, linker removed
This excerpt belongs to a sample that is enriched for the strongest signals.
measuredEndpoint: glycan array binding signal (z-score)
Answers are plain numbers.

Gal 8 (Mus musculus), Q9JL15 (protein) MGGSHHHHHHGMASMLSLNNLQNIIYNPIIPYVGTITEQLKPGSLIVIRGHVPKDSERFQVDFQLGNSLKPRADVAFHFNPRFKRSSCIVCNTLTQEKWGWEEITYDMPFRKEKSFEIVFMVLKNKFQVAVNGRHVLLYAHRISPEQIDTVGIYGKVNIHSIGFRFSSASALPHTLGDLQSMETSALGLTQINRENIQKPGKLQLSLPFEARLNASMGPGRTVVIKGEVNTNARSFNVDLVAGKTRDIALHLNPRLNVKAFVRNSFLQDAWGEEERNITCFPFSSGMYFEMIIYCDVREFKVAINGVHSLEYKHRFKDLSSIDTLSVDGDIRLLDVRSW ... -0.602

API: the following record is the query input.
*Q* Form field: reported glycan array binding signal (z-score) of Arath Fbox (Arabidopsis thaliana), NP_178341.1 (protein) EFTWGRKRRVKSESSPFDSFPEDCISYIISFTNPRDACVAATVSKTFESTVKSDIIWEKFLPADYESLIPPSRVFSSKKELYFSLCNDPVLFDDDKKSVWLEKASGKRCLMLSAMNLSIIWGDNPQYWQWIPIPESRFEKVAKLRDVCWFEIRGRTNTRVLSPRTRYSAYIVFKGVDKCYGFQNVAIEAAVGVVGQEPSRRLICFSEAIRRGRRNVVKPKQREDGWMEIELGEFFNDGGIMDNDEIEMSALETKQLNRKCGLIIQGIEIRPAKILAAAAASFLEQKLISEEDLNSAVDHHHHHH
*A* -0.533
